Measured target: recombinant SARS-CoV-2 RBD with C-terminal AviTag (SARS-CoV-2, UniProt P0DTC2 319-541)
Recorded IC50 for the following binders
Respond with the bare value in nM.

Binder	Experimental readout	Experimental value
MBP-5HVZ-R5D-G6-H6 (VHH, not shown: large carriers; small tags and cut ends) VHH: QVQLVESGGGLVQPGGSLRLSCAASGRILAANIVHWYRQAPGKNREGVAGITSGGSTYYADSVKGRFTISRDNAKNTVYLQMNSLKPEDTAVYYCAAKPLGSPDDFDYWGQGTQVTVSS	IC50	3.2
MBP-5HVZ-R5D-F3-H6 (VHH, not shown: large carriers; small tags and cut ends) VHH: QVQLVESGGGLVQPGGSLRLSCAASGSQLSINYVHWFRQAPGKQREFVAAITITGSSYYADSVKGRFTISRDNAKNTVYLQMNSLKPEDTAVYYCNTVDRTDNYGYDYWGQGTQVTVSS	IC50	29.3

query: I'd like to know its IC50. The binder in question is MBP-5HVZ-R5D-E4-H6 (VHH, not shown: large carriers; small tags and cut ends) VHH: QVQLVESGGGLVQPGGSLRLSCAASGQISSNNGMHWFRQAPGKRREFVATATTGGTTSYADSVKGRFTISRDNAKNTVYLQMNSLKPEDTAVYYCTALLMSRAGEFDYWGQGTQVTVSS
result: 13.7

query: Now the binder MBP-5HVZ-R5D-G1-H6 (VHH, not shown: large carriers; small tags and cut ends) VHH: QVQLVESGGGLVQPGGSLRLSCAASGSIFGINDVHWFRQAPGKEREFVATITNGLSARYKDSVKGRFTISRDNAKNTVYLQMNSLKPEDTAVYYCAAQVYITTYELYDYWGQGTQVTVSS
result: 12.4

Numbers sourced from patent US20240150440A1.
